system: human 5HT1A receptors (Homo sapiens)
Construct: expressed in transfected cells; host or cells: CHO cells
Sequence (P08908 whole entry): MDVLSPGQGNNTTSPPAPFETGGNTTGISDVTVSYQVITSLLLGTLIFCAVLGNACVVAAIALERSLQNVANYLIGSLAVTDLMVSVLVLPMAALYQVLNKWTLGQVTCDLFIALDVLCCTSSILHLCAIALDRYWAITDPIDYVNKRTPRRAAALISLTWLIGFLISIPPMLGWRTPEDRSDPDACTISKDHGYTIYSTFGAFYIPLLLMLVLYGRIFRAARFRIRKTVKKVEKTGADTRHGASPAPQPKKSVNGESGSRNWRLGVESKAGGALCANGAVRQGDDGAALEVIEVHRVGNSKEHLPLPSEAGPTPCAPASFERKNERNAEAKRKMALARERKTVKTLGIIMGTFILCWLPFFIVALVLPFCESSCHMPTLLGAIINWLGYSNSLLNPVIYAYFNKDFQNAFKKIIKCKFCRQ
test-summary: Displacement of [3H] 8-OH-DPAT from 5HT1A receptor in stably transfected CHO cells
Type: binding
applied-conditions: CHO cells with human 5HT1A receptors, read-out: 5HT1A Receptor Affinity Ki
Listed below: Ki values for each entry.

{"compound": "Cc1ccc2c3c(ccc2n1)OC[C@H](CN[C@H]1CC[C@@H](c2c[nH]c4ccccc24)C1)O3 (mixture of isomers)", "Ki / µM": 0.00256}
{"compound": "Cc1nc2ccc3c(c2o1)O[C@@H](CN[C@H]1CC[C@@H](c2c[nH]c4ccc(F)cc24)C1)CO3 (mixture of isomers)", "Ki / µM": 0.0164}
{"compound": "Cc1ccc2c3c(ccc2n1)OC[C@H](CN[C@H]1CC[C@@H](c2c[nH]c4ccc(F)cc24)C1)O3 (mixture of isomers)", "Ki / µM": 0.00473}
{"compound": "Cc1ccc2c3c(ccc2n1)OCC(CNC1CCC(c2cn(C)c4ccc(F)cc24)C1)O3 (single isomer, unassigned) [Example 6]", "Ki / µM": 0.0203}
{"compound": "Cc1nc2ccc3c(c2o1)O[C@@H](CN[C@H]1CC[C@H](c2c[nH]c4ccc(F)cc24)C1)CO3 (mixture of isomers)", "Ki / µM": 0.0286}
{"compound": "Cc1ccc2c3c(ccc2n1)OCC(CNC1CCC(c2c[nH]c4ccc(F)cc24)C1)O3 (stereo not shown) [Example 4]", "Ki / µM": 0.00912}
{"compound": "Cc1ccc2c3c(ccc2n1)OCC(CNC1CCC(c2c[nH]c4ccccc24)C1)O3 (stereo not shown)", "Ki / µM": 0.0128}
